# assayed system: Tyrosine-protein phosphatase non-receptor type 1 (Homo sapiens, UniProt P18031)
# Sequence (P18031 whole entry): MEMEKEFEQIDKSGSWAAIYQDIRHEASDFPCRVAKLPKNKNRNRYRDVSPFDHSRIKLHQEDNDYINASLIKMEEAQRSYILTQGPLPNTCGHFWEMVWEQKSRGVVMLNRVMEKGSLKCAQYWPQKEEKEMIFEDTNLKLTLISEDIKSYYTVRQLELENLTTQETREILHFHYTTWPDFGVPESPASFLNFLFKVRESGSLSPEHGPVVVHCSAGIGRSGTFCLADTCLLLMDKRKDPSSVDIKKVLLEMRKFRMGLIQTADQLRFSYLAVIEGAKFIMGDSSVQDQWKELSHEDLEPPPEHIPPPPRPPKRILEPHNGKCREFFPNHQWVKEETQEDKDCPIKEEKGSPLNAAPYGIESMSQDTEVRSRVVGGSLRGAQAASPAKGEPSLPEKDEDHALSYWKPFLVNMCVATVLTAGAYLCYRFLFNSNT
# experiment notes: Inhibitory activity against Protein-tyrosine phosphatase 1B at pH 5.5
property: pKi
Please report pKi as the negative decimal logarithm of the molar concentration, giving only the number.

INPUT: So what's the measured pKi for this one? `O=C(O)C(=O)Nc1sc2c(c1C(=O)O)CCN[C@H]2CNC(=O)c1cc2cc(F)ccc2[nH]1`
OUTPUT: 7.74

====

# experiment notes: Bioavailability
# Assay type: ADME, organism-based
# setup conditions: eutheria, in vivo; read-out: Fez
property: bioavailability (%)
Give the value in % but do not write % after it.

INPUT: So what's the measured bioavailability for this one? O=C(c1ccccc1)C(Cc1ccc(C(F)(F)P(=O)(O)O)cc1)c1ccccc1 (stereo unspecified)
OUTPUT: 13

====

# assayed system: Tyrosine-protein phosphatase non-receptor type 1 (Homo sapiens, UniProt P18031)
# experiment notes: Inhibitory activity against Protein-tyrosine phosphatase 1B
property: Ki (nM)
Give the value in nM but do not write nM after it.

INPUT: Please provide the recorded Ki for CCc1cc(CC(NC(C)=O)C(=O)NCCCCC(=O)N[C@@H](CCSC)C(=O)O)ccc1N(C(=O)C(=O)O)c1ccccc1C(=O)O (stereo partly specified) , tested on Tyrosine-protein phosphatase non-receptor type 1 (Homo sapiens, UniProt P18031).
OUTPUT: 77

The reported numbers originate from ChEMBL document CHEMBL1138670.
